# TARGET OR SYSTEM: GABA A receptor α2β3γ2 (hα2) (Homo sapiens, UniProt P18507+P47869)
# Construct: expressed in transfected cells; host or cells: HEK293, transiently transfected; membranes
# TEST: [3H]flumazenil competition binding, human GABA A α2β3γ2
# Experimental: The affinity of compounds at GABA A receptor subtypes was measured by competition for [^3H]flumazenil (85 Ci/mmol; Roche) binding to HEK293 cells expressing rat (stably transfected) or human (transiently transfected) receptors of composition α1β3γ2, α2β3γ2, α3β3γ2 and α5β3γ2. […]
OBSERVED PROPERTY: pKi
Note on pKi: it is the negative log10 of concentration, concentration in mol/L.

Consider the reported pKi for these molecules:
Clc1ncn2c1Cn1ncnc1-c1cc(NC3CC3)ccc1-2 7.03
Clc1ncn2c1Cn1ncnc1-c1ccccc1-2 8.82
FC(F)c1ccc2c(c1)-c1ncnn1Cc1c(Cl)ncn1-2 7.40

pKi in this record for `Brc1ncn2c1Cn1ncnc1-c1ccccc1-2` : 9.10

Reported pKi of `COC(=O)c1ccc2c(c1)-c1ncnn1Cc1c(Cl)ncn1-2` : 7.94

The recorded pKi for entry `FCCOc1ccc2c(c1)-c1ncnn1Cc1c(Cl)ncn1-2` equals 7.60

Value of pKi reported for the molecule `Fc1ccc2c(c1)-c1ncnn1Cc1c(Br)ncn1-2` is 8.43

* * *

Known pKi of a selection of molecules
# TARGET OR SYSTEM: GABA A receptor α2β3γ2 (hα2) (Homo sapiens, UniProt P18507+P47869)
# Construct: expressed in transfected cells; host or cells: HEK293, transiently transfected; membranes
# TEST: [3H]flumazenil competition binding, human GABA A α2β3γ2
pKi here is simply -log10 of the concentration when that concentration is written in mol/L.

MOLECULE	OBSERVED PROPERTY	VALUE REPORTED
Clc1ncn2c1Cn1ncnc1-c1cc(C3CC3)ccc1-2 [Example 30]	pKi	7.73
Cc1ccc2c(c1)-c1ncnn1Cc1c(Cl)ncn1-2 [Example 22]	pKi	7.39
Clc1ccc2c(c1)-c1ncnn1Cc1c(I)ncn1-2 [Example 48]	pKi	7.83
C=C=Cc1ccc2c(c1)-c1ncnn1Cc1c(Cl)ncn1-2 [Example 70]	pKi	7.52

Reported pKi of C=COc1ccc2c(c1)-c1ncnn1Cc1c(Cl)ncn1-2 [Example 10] : 7.59

* * *

Reported Ki values for the following molecules.
# TARGET OR SYSTEM: GABA A receptor α1β3γ2 (hα1) (Homo sapiens, UniProt P14867+P18507)
# Construct: expressed in transfected cells; host or cells: HEK293, transiently transfected; membranes
# TEST: [3H]flumazenil competition binding, human GABA A α1β3γ2
# RUN PARAMETERS: HEK293 cells transiently transfected, 1 nM [3H]flumazenil, mean of two determinations; read-out: Ki[nM] hα1
Numbers only here, please. The scale is nM.

Brc1ncn2c1Cn1ncnc1-c1ccccc1-2 2.4
C=COc1ccc2c(c1)-c1ncnn1Cc1c(Cl)ncn1-2 22.4
Cc1ccc2c(c1)-c1ncnn1Cc1c(Cl)ncn1-2 19.6
CCCc1ccc2c(c1)-c1ncnn1Cc1c(Cl)ncn1-2 58.8
Clc1ncn2c1Cn1ncnc1-c1cc(Br)ccc1-2 33
Clc1ncn2c1Cn1ncnc1-c1cc(C3CC3)ccc1-2 28.7
Clc1ncn2c1Cn1ncnc1-c1ccccc1-2 3.8
C=C=Cc1ccc2c(c1)-c1ncnn1Cc1c(Cl)ncn1-2 26.9

Per the record, `Clc1ncn2c1Cn1ncnc1-c1cc(NC3CC3)ccc1-2` has Ki of 21

Documented Ki of `Clc1ccc2c(c1)-c1ncnn1Cc1c(I)ncn1-2` : 9.2
